Ref: patent US10076116B2

# maps each entry to its Efficacy at 100 ppm (Table C1)
# Test system: Puccinia recondita
# ASSAY_COMMENT: In vivo preventive test on Puccinia recondita (brown rust on wheat)
# CONDITION_DETAILS: 100 ppm; very similar conditions; formulated in DMF with 2% of alkylarylpolyglycolether
ENDPOINT: Efficacy at 100 ppm (Table C1) (%)

COMPOUND	UNIT_OF_MEASUREMENT	NUMERIC_READOUT
Cn1nc(C(F)F)c(C(=O)N(Cc2cc3ccccc3n2-c2ccccc2)C2CC2)c1F	%	0
Cc1nn(-c2ccccc2)nc1CN(C(=O)c1c(C(F)F)nn(C)c1F)C1CC1	%	0
Cc1sc(-c2ccccc2)cc1C(C)N(C(=O)c1c(C(F)F)nn(C)c1F)C1CC1 (stereo not drawn)	%	0
Cn1nc(C(F)F)c(C(=O)N(Cc2cc(-c3ccc(Cl)cc3)no2)C2CC2)c1F	%	10
Cc1nc(-c2ccc(Cl)cc2)sc1CN(C(=O)c1c(C(F)F)nn(C)c1F)C1CC1	%	0
Cn1nc(C(F)F)c(C(=O)N(Cc2cc(-c3cc(F)c(F)c(F)c3)no2)C2CC2)c1F	%	0
